All figures here come from PubChem BioAssay AID602166.

- tested.system: Nuclear receptor coactivator 3 (Homo sapiens) (UniProt Q9Y6Q9)
- Sequence (Q9Y6Q9 whole entry, looked up): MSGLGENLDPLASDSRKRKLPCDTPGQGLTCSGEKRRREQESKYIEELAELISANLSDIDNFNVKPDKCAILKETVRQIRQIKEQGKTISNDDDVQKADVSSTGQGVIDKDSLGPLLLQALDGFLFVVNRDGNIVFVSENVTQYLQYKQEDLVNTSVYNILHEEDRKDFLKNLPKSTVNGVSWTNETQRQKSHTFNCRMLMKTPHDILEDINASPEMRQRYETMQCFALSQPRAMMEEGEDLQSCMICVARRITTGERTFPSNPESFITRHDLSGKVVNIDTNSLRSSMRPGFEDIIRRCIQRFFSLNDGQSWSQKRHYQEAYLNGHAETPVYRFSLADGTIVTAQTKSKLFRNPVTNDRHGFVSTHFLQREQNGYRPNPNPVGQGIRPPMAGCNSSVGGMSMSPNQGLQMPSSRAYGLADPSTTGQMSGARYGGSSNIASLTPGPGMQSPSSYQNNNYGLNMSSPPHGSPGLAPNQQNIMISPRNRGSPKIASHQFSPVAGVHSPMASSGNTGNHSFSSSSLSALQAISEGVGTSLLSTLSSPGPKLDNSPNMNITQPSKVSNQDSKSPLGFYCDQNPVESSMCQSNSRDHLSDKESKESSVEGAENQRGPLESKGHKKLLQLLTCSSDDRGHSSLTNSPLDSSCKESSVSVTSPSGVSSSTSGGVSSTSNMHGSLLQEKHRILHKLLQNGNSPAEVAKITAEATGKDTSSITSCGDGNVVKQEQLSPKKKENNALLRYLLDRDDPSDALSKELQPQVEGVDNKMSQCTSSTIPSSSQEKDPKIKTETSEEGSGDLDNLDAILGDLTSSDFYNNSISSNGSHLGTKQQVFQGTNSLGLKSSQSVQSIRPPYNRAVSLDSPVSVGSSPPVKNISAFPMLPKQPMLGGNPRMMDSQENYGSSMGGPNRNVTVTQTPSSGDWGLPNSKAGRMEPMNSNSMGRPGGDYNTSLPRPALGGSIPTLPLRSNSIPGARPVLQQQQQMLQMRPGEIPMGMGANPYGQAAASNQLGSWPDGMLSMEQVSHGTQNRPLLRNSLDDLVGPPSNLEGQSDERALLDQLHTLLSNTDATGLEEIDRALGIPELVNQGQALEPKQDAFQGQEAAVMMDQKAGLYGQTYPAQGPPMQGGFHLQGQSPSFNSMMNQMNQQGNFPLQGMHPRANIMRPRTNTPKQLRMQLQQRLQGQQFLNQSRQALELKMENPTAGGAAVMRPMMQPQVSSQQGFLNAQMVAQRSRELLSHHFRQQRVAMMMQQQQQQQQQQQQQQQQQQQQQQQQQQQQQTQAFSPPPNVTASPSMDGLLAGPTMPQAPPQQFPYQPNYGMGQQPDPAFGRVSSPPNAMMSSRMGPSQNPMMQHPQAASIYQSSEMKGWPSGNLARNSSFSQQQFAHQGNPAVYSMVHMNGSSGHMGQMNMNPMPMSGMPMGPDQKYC
- procedure.details: NCOA3 reporter inhibition potency – cell-based, luminescence, dose response (AID 602166);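 further: potency for reduction of SRC3 reporter signal so compounds are inhibitors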
- condition.label: SRC3 luciferase reporter cell assay
Active and inactive are the calls of the source. How the calls were made is not given here.
property.measured: IC50

// known answers, use as guide
| molecule | IC50 |
| --- | --- |
| CCc1ccc(-c2nc(CSCC(=O)NCc3ccco3)c(C)o2)cc1 | > 35.9 µM (inactive) |
| CO[C@@]12[C@@H]3N[C@@H]3CN1C1=C(C(=O)C(N)=C(C)C1=O)[C@@H]2COC(N)=O | > 35.8 µM (inactive) |
| O=C(Nc1ccc(OCC(=O)N2CCOCC2)cc1)c1cncc(Br)c1 | 4.43 µM |
| O=C(Nc1cccc(C(F)(F)F)c1)Nc1nnc([C@@H]2C[C@H](O)[C@@H](CO)O2)s1 | 5.86 µM |
| CC(C)(C)c1cc(C(=O)N/N=C/c2ccc(O)cc2)n(-c2ccccc2)n1 | > 35.9 µM (inactive) |

Input O=C(NC(NC(=S)N1CCOCC1)C(Cl)(Cl)Cl)c1ccc(Cl)cc1 (stereo not drawn) . Output IC50: > 35.9 µM (inactive)

CN(Cc1cnc2nc(N)nc(N)c2n1)c1ccc(C(=O)NC(CCC(=O)O)C(=O)O)cc1 (stereo not drawn) has a reported IC50 of > 35.9 µM (inactive)

Looking up CCCC(=O)NC(c1ccc(Cl)cc1)c1ccc2cccnc2c1O (stereo not drawn) , I found its IC50 recorded as 4.7 µM

For reference, reported IC50 for "COc1ccc(/C=C2\CC/C(=C\c3ccc(OC)c(OC)c3)C2=O)cc1OC" stands at 6.33 µM

Briefly, IC50 measured for CCCCC(=O)NC(c1ccc(Cl)cc1Cl)c1ccc2cccnc2c1O (stereo not drawn) : 4.71 µM

# IC50 of "Clc1ccc(-c2csc3ncnc(NCCN4CCOCC4)c23)cc1" = 8.15 µM

Recorded IC50 (molecule "NC(=O)c1sc2nc3c(c(-c4ccco4)c2c1N)CCC3" ): 1.12 µM

Sample "COc1cccc(CNc2ncnc3ccc(-c4c(C)noc4C)cc23)c1" ; IC50 observed: inactive

# IC50 (molecule: "COc1cc2c(ccc3cc(OC)c(OC)c(O)c32)cc1O" ) is inactive

Consider "COc1ccc(-c2nsc3c(N4CCCCC4)ncnc23)cc1" . Its measured IC50 is > 35.9 µM (inactive)

For this molecule ( COc1ccc(COC(=O)C2=C(C)NC(=O)NC2c2ccc(F)cc2)cc1 (stereo not drawn) ), measured IC50 is 7.71 µM

"Cc1ccc(N=c2c([N+](=O)[O-])nn(-c3ccc4c(c3)OCCO4)n2O)cc1F" has a reported IC50 of 8.48 µM

Entry under test: "O=C(N/N=C/c1cc(Br)c(Br)s1)c1ccncc1" . Its IC50 was 8.67 µM

Lab note: measured IC50 of "Cc1ccc2occ(/C=N/NC(=O)[C@@H](N)Cc3ccccc3)c(=O)c2c1" was 9.86 µM

The recorded IC50 for entry O=C(CCl)N(c1ccccc1)C1CCS(=O)(=O)C1 (stereo not drawn) equals 6.92 µM

Noted for "C=CC[n+]1c(-c2ccc(C)cc2)csc1Nc1ccc(NC(C)=O)cc1" : its IC50 reads > 35.9 µM (inactive)

Per the record, "C=CCOn1c(C)c(C(C)=O)c2c3nonc3ccc21" has IC50 of 4.12 µM

// COc1ccc(C(C(=O)NC2CCCCC2)N(C(=O)CCl)c2ccc(Cl)cc2)cc1 (stereo not drawn) : IC50 value = 3.7 µM

// sample "CCn1c2ccccc2c2cnc(N=CN(C)C)c(C#N)c21" , its IC50 was 4.94 µM

Reported IC50 for "Cc1c(CC(=O)NCCCC(=O)O)c(=O)oc2cc3c(cc12)CCC(C)(C)O3" was 7.52 µM

For this molecule ( "Cc1cccc(C)c1NS(=O)(=O)c1ccc(-c2cnc(C3CC3)o2)cc1" ), measured IC50 is inactive

# IC50 (molecule: "O=S(=O)(c1ccc(F)cc1)c1snnc1-c1ccccc1" ) is inactive

The recorded IC50 for "S=C(Nc1ccccc1)Nc1ccc(OCc2ccc(Cl)cc2Cl)cc1" is 4.36 µM

So, "O=C(c1ccncc1)N(Cc1cc2ccccc2[nH]c1=O)C1CCCCC1" ? Its IC50 was 5.82 µM
